Tested on: miR-122
method summary: psiCHECK-miR122 dual luciferase reporter assay in Huh7 cells
Format: cell-based, human
conditions: Homo sapiens, Huh-7; Huh7, calculated from FIG. 5; read-out: IC50 (miR-122 activator, luciferase dose response)
measured metric: IC50 (µM)
The reply should be a number in µM, with the unit left off.

Exam item: Need IC50, item `CN(C)CCN1C(=O)c2cccc3cc(N)cc(c23)C1=O`
Marked response: 0.37

Value source: patent US20130005759A1
